System: ryr1b homozygous mutant zebrafish
measurementDescription: Secondary screen of individual chemicals in ryr1b zebrafish (vitality: survival and touch-evoked escape behavior)
Assay type: in vivo, zebrafish (Danio rerio)
Parameters: key: vitality score, theoretical range 0–60; DMSO controls expected ~50
experimentalContext: 2.0 μg/mL from 1 dpf, scored at 5 dpf; average of two replicates of 20 larvae from heterozygous ryr1b matings; score=(#Dead*0)+(#ryr1b*1)+(#Moderate*2)+(#Wild-type*3), max 60, expected 50 in DMSO controls
Structures can show the parent of a compound that is named as a salt.
Measured Vitality Score values are reported for all entries that follow.
Lab note: record the figure alone, no unit after it.

A selection of reference data follows.
>>> print(df.to_string())
                                   molecule      metricname  assayvalue
0  C#CCN(C)Cc1ccccc1 [Pargyline hydrochloride]  Vitality Score        58.0
1  CC(C(=O)O)c1cccc(C(=O)c2ccccc2)c1 (stereo not shown) [Ketoprofen]  Vitality Score        52.0
2  O=C(O)c1cc(/N=N/c2ccc(S(=O)(=O)Nc3ccccn3)cc2)ccc1O [Sulfasalazine]  Vitality Score        57.0

Given N[C@@H]1C[C@H]1c1ccccc1 [Tranylcypromine hydrochloride] , state its recorded Vitality Score.
52.0
